The values you see were collected from patent US20030215462A1.

molecular target: UGT1A10 (Homo sapiens, UniProt Q9HAW8); assay: in vitro; conditions: pH 7.5, % of control metabolism, raloxifene G2
Sequence (Q9HAW8 26-530): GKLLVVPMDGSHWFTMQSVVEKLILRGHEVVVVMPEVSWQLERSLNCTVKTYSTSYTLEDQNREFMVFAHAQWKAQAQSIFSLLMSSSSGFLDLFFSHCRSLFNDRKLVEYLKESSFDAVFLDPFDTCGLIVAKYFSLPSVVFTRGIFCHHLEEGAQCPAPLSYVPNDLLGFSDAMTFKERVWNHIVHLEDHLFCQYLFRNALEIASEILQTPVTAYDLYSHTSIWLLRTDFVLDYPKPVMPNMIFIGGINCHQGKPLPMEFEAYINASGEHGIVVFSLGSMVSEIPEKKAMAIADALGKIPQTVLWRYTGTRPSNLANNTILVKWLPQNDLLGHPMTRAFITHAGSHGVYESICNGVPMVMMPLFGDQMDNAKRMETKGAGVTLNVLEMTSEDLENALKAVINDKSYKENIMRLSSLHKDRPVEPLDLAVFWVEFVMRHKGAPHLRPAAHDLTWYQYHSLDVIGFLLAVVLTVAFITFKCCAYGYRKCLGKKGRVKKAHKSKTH
Form field: activity at 15 min, 50 µM (one value per entry).
Numeric answer only, unit % assumed.

Sample answers from the record:
{"molecule": "O=c1c(O)c(-c2ccc(O)c(O)c2)oc2cc(O)cc(O)c12", "unitSymbol": "%", "activity at 15 min, 50 µM": 48}
{"molecule": "O=C(O[C@@H]1Cc2c(O)cc(O)cc2O[C@@H]1c1ccc(O)c(O)c1)c1cc(O)c(O)c(O)c1 [Epicatechin gallate]", "unitSymbol": "%", "activity at 15 min, 50 µM": 51}
{"molecule": "COc1c(C)c2c(c(O)c1C/C=C(\\C)CCC(=O)O)C(=O)OC2 [Mycophenolic acid, reference compound]", "unitSymbol": "%", "activity at 15 min, 50 µM": 98}

Can you share its activity at 15 min, 50 µM? I mean this molecule: O=C(O)c1cc(-c2ccc(F)cc2F)ccc1O [Diflunisal, reference compound]
90

Can you share its activity at 15 min, 50 µM? I mean this molecule: "C=CCc1ccc(O)c(OC)c1"
81

Can you share its activity at 15 min, 50 µM? I mean this molecule: CCCOC(=O)c1cc(O)c(O)c(O)c1 [Propyl gallate]
72

Can you share its activity at 15 min, 50 µM? I mean this molecule: COc1cc(C2Oc3cc([C@H]4Oc5cc(O)cc(O)c5C(=O)[C@@H]4O)ccc3OC2CO)ccc1O (some centres unmarked)
64

Can you share its activity at 15 min, 50 µM? I mean this molecule: O=C(O)Cc1ccccc1Nc1c(Cl)cccc1Cl [Diclofenac, reference compound]
93

* * *

tested on: UGT enzymes of human liver microsomes; construct: percentage of control metabolism, 7-HFC glucuronidation; percentage of control metabolism, 7-HFC glucuronidation; experiment: Inhibition of 7-HFC glucuronidation in human liver microsomes; assay type: biochemical; conditions: inhibitor 50 μM; 7-HFC 50 μM, human liver microsomes 100 μg/ml, 15 min
observationType: % of control metabolism (SD, n = 3), 7-HFC glucuronidation

Sample answers from the record:
{"compound": "CCCCCCCCCCCCOC(=O)c1cc(O)c(O)c(O)c1 [Lauryl gallate]", "recordedResult": "76 (2) %"}
{"compound": "O=C(O[C@@H]1Cc2c(O)cc(O)cc2O[C@H]1c1cc(O)c(O)c(O)c1)c1cc(O)c(O)c(O)c1 [Gallocatechin gallate]", "recordedResult": "68 (2) %"}
{"compound": "CC/C(=C(/CC)c1ccc(O)cc1)c1ccc(O)cc1 [Diethylstilbestrol, reference compound]", "recordedResult": "34 (2) %"}

Attention now shifts to the item below.
Can you share its % of control metabolism (SD, n = 3), 7-HFC glucuronidation? I mean this compound: "COc1cc(CNC(=O)CCCC/C=C/C(C)C)ccc1O"
69 (1) %

* * *

Molecular target: UGT1A9 (Homo sapiens)
Sequence (O60656 26-530): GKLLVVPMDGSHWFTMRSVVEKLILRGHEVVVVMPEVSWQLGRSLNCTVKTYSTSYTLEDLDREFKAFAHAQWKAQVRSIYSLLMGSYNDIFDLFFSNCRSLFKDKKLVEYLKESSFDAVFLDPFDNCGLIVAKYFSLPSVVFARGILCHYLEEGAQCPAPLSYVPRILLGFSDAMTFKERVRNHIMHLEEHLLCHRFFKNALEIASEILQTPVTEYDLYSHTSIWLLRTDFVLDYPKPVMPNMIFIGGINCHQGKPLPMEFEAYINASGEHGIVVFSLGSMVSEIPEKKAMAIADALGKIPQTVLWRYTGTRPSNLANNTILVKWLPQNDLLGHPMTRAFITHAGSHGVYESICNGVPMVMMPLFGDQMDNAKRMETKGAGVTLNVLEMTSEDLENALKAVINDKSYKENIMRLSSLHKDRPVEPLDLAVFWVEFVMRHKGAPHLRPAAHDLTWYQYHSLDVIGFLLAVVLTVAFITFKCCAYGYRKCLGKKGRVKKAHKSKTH
Assay: Inhibition of raloxifene glucuronidation by recombinant UGT1A9 Supersomes
Conditions: human, Supersomes with recombinant human UGT1A9, pH 7.5, probe raloxifene 50 μM, formation of glucuronide G1, % of control metabolism, raloxifene G1, UGT1A9; inhibitor 10 μM
observationType: activity at 15 min, 10 µM
Number first, unit second.

Sample answers from the record:
{"compound": "CC/C(=C(/CC)c1ccc(O)cc1)c1ccc(O)cc1 [Diethylstilbestrol, reference compound]", "recordedResult": "78%"}
{"compound": "O=C(OC[C@H]1O[C@@H](OC(=O)c2cc(O)c(O)c(OC(=O)c3cc(O)c(O)c(O)c3)c2)[C@H](OC(=O)c2cc(O)c(O)c(OC(=O)c3cc(O)c(O)c(O)c3)c2)[C@@H](OC(=O)c2cc(O)c(O)c(OC(=O)c3cc(O)c(O)c(O)c3)c2)[C@@H]1OC(=O)c1cc(O)c(O)c(OC(=O)c2cc(O)c(O)c(O)c2)c1)c1cc(O)c(O)c(OC(=O)c2cc(O)c(O)c(O)c2)c1", "recordedResult": "44%"}

Attention now shifts to the item below.
What activity at 15 min, 10 µM appears in the records for this compound with UGT1A9 (Homo sapiens)? "O=c1c(O)c(-c2ccc(O)c(O)c2)oc2cc(O)cc(O)c12"
59%
